Numbers sourced from PubChem BioAssay (NCATS).

Would you kindly list activation for each of these molecules?
test.target: Cellular tumor antigen p53 (Homo sapiens)
test: Primary qHTS for small molecule compounds that upregulate eGFP-tagged delta133p53alpha (in N-terminal) cells. (AID 2060322);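 further: cells pre-induced with doxycycline then dosed without doxycycline; series mostly up to about 56 µM; 0% = DMSO vehicle and 100% = reference activator; nearly all actives have a fitted effect of over 75% in size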
stated.conditions: NCI-H358 eGFP-delta133p53alpha fluorescence, 24 h; hits give high values
Inconclusive results are not listed. Peptide text beside a SMILES is read from it. * marks the point of attachment. AFC = O=c1cc(C(F)(F)F)c2ccc(N*)cc2o1
Please respond with the number in % and leave the unit unwritten.

For this molecule ( OC[C@H]1O[C@@H](OC[C@H]2O[C@@H](OCc3ccccc3)[C@H](O)[C@@H](O)[C@@H]2O)[C@H](O)[C@@H](O)[C@@H]1O ), measured activation is -3.82

For this molecule ( C=C(C)C1CCC2(C(=O)O[C@@H]3O[C@H](CO[C@@H]4O[C@H](CO)[C@@H](O)[C@H](O)[C@H]4O)[C@@H](O)[C@H](O[C@@H]4O[C@@H](C)[C@H](O)[C@@H](O)[C@H]4O)[C@H]3O)CCC3(C(=O)O)C(CCC4C5(C)CCC(O)C(C)(C)C5CCC43C)C12 (some centres undefined) ), measured activation is -13.7

For this molecule ( CC(C)(O)C1OC1C1=CC(=O)C2(C)OC2C1O (centres undefined) ), measured activation is 1.79

For this molecule ( CC1(C)OC(=O)CC(O)C2(C)C1CC(=O)C1(C)C2C(O)CC2(C)C(c3ccoc3)OC(=O)C3OC321 (centres undefined) ), measured activation is -23.7

For this molecule ( Fc1ccc2nc(CCC#Cc3ccccn3)cn2c1 ), measured activation is 2.68

For this molecule ( CC1OC(OC2C(C)OC(OC3C(OC(=O)C45CCC(C)(C)CC4C4=CCC6C7(C)CCC(OC8OC(C(=O)O)C(O)C(O)C8OC8OC(CO)C(O)C(OC9OC(C)C(O)C(O)C9O)C8O)C(C)(CO)C7CCC6(C)C4(C)CC5)OC(CO)C(O)C3O)C(O)C2O)C(O)C(O)C1O (centres undefined) ), measured activation is 13.4

For this molecule ( CCOc1nc2c(N)ncnc2n1CC ), measured activation is -10

For this molecule ( CC(=O)N[C@@H](Cc1c[nH]c2ccccc12)C(=O)N[C@@H](CCC(=O)O)C(=O)N[C@@H](Cc1cnc[nH]1)C(=O)N[C@@H](CC(=O)O)C(=O)Nc1ccc2c(C(F)(F)F)cc(=O)oc2c1 (Ac-WEHD-{AFC}) ), measured activation is -4.33

For this molecule ( Cc1nc(NC(=O)N2CCCC2C(N)=O)sc1-c1csc(C(C)(C)C)n1 (centres undefined) ), measured activation is 16.1

For this molecule ( C=C1CCC2C(C)(C(=O)O)CCCC2(C)C1CCC(C)CC(=O)O (centres undefined) ), measured activation is -3.57

For this molecule ( COC(=O)C1=COC(O[C@@H]2O[C@H](CO)[C@@H](O)[C@H](O)[C@H]2O)/C(=C\COC(=O)c2ccc(OC3OC(CO)C(O)C(O)C3O)c(OC)c2)C1CC(=O)OCCc1ccc(O)cc1 (some centres undefined) ), measured activation is -11.5

For this molecule ( Cc1noc(-c2ccc(-c3ccc(CC(=O)O)cc3)cc2)c1NC(=O)O[C@H](C)c1ccccc1 ), measured activation is -1.79

For this molecule ( O=C(/C=C/c1ccc(O)cc1)N[C@@H](Cc1ccc(O)cc1)C(=O)O ), measured activation is 2.29

For this molecule ( OC[C@@]1(O)CO[C@H](OC[C@H]2O[C@@H](OCCc3ccccc3)[C@H](O)[C@@H](O)[C@@H]2O)[C@@H]1O ), measured activation is -10.7
